Reported values of H1.0 immunofluorescence intensity for individual entries
System: TDF
Test description: H1.0 immunofluorescence intensity relative to DMSO (% of DMSO); higher = stronger H1.0 induction, active = 120 or more
Cond: concentration: 10 µM; 24 h

Compound	H1.0 immunofluorescence intensity
CC[N+](CC)(CC)CCOc1cccc(OCC[N+](CC)(CC)CC)c1OCC[N+](CC)(CC)CC.[I-].[I-].[I-] [Gallamine triethiodide]	98.8
NC(=O)c1cccc(N)c1 [3-aminobenzamide]	90.5
Cc1cc2nc(NCCCO)n(CC(=O)c3cc(C(C)(C)C)c(O)c(C(C)(C)C)c3)c2cc1C	97.1
Br.CN1CCc2cc(O)c(O)cc2C1Cc1ccc(O)c(O)c1.O.O.O (stereo unspecified)	93.9
O=C(O)CCCC=CCC1C(=O)CC(O)C1C=CC(O)CCc1ccccc1 (stereo unspecified) [17-Phenyl-trinor-prostaglanding E2]	106
CC(N)C12CC3CC(CC(C3)C1)C2 (stereo unspecified) [Rimantadine]	93.4

====

Tested on: TDF
Test description: H1.0 immunofluorescence intensity relative to DMSO (% of DMSO); higher = stronger H1.0 induction, active = 120 or more
Cond: concentration: 10 µM; 24 h
Value kind: H1.0 immunofluorescence intensity

Compound	Value kind	Reported measurement
COc1ccc(Cn2cc(C(=O)O)c(=O)c3ccccc32)cc1	H1.0 immunofluorescence intensity	98.8 (inactive)
OCC1OC(n2cnc3c(NC4CCCCC4)ncnc32)C(O)C1O (stereo not given)	H1.0 immunofluorescence intensity	97.9 (inactive)
c1ccc2c(Cc3c[nH]c4ccccc34)c[nH]c2c1	H1.0 immunofluorescence intensity	98.8 (inactive)
COCCCOc1ccnc(CS(=O)c2nc3ccccc3[n-]2)c1C.[Na+] (stereo not given)	H1.0 immunofluorescence intensity	103 (inactive)
CNCCC(Oc1ccccc1C)c1ccccc1 (stereo not given)	H1.0 immunofluorescence intensity	103 (inactive)
O=c1oc2ccccc2c(O)c1Cc1c(O)c2ccccc2oc1=O	H1.0 immunofluorescence intensity	99 (inactive)
Cl.Nc1cc(Nc2ccc(S(N)(=O)=O)cc2)ncn1	H1.0 immunofluorescence intensity	98.4 (inactive)
CS(=O)(=O)c1ccc(C2=C(c3ccccc3)C(=O)OC2)cc1	H1.0 immunofluorescence intensity	98.4 (inactive)
Cc1cc(O)c2c(c1)C(=O)c1cc(O)cc(O)c1C2=O	H1.0 immunofluorescence intensity	98.6 (inactive)
Br.CCSC(=N)N [S-Ethylisothiourea hydrobromide]	H1.0 immunofluorescence intensity	97.1 (inactive)

====

Test system: HCC1569
Test description: H1.0 immunofluorescence intensity relative to DMSO (% of DMSO); higher = stronger H1.0 induction, active = 140 or more
Cond: concentration: 10 µM; 24 h
Value kind: H1.0 immunofluorescence intensity

Molecule	Reported measurement
CCCCCCC=CCCCCCCCCC(=O)O [10(Z)-Heptadecenoic acid]	102
CC1=C(CC(=O)O)c2cc(F)ccc2C1=Cc1ccc(S(C)(=O)=O)cc1	103
Nc1ccn(C2CCC(CO)O2)c(=O)n1 (centres undefined) ["2',3' - Dideoxycytidine"]	101
Cl.Cl.NCCSSCCN [Cystamine dihydrochloride]	101

====

Test system: TDF
Test description: cell number relative to DMSO (% of DMSO); higher = more cells (less growth inhibition / toxicity)
Cond: concentration: 10 µM; 24 h
Reported values of cell number for individual entries

Compound	cell number
N#CC(=Cc1ccc(O)c(O)c1)C(=O)c1ccc(O)c(O)c1	97.3
CCC1(C)CC(=O)NC1=O (centres undefined) [Ethosuximide]	98.8
COc1ccc(-c2cc(=O)c3c(O)cc(O)cc3o2)cc1O	101
S=c1ccss1	103

All values here come from the supplement of paper PMC7156485.
